Values from patent US20240270821A1

# tested.target: human glucagon receptor (human) (UniProt P47871)
# Sequence (P47871 26-477): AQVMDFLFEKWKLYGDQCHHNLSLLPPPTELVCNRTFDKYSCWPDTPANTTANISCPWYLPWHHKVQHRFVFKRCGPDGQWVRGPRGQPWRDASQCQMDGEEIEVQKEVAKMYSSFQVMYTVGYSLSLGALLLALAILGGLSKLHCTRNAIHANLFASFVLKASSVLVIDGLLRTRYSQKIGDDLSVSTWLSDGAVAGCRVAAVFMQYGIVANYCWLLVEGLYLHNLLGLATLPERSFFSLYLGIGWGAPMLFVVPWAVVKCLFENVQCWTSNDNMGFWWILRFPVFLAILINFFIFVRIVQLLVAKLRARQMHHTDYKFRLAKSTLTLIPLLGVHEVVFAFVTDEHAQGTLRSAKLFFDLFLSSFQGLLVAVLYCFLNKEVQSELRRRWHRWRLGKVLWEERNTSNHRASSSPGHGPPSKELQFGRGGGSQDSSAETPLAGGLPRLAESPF
# assay.overview: cell-based or functional assay
Below, each entry is listed alongside its reported Relative cAMP EC50.
Numbers only; they are read as nM.

Exercise: Please give the measured Relative cAMP EC50 for this binder: YXQGTXTSDXSILLDKKAQXAFIEYLEEGGPSSGAPPPSGGEE (Aib, alpha-methyl-2F-Phe, 4Pal, lipidated Lys, amide; synthetic construct; SITE 2: note = 2-Aminoisobutyric Acid; SITE 6: note = alpha-methyl-2-fluoro-L-phenylalanine; SITE 10: note = 3-(4-Pyridyl)-L-alanine; SITE 17: note = Lysine is chemically modified through conjugation of the epsilon-amino group of the Lysine side chain with (gamma-Glu)2-CO-(CH2)1) [Example 612]
Solution: 7.13

Exercise: Quick one: YXQGTXTSDXSILLDKKAQXAFIEYLEEGGPSSGAPPPSGEGE (non-natural residues, lysine acylation, C-terminal amide; synthetic construct; SITE 2: note = 2-Aminoisobutyric Acid; SITE 6: note = alpha-methyl-2-fluoro-L-phenylalanine; SITE 10: note = 3-(4-Pyridyl)-L-alanine; SITE 17: note = Lysine is chemically modified through conjugation of the epsilon-amino group of the Lysine side chain with (gamma-Glu)2-CO-(CH2)1) [Example 621]
Solution: 6.81

For the next question, use this binder.
Exercise: Fill blank: measured Relative cAMP EC50 of the binder YXQGTFTSDFSKXLDKKAQXAFIEYLLAGGPSSGEPPPSEG (Aib, αMeL, acylated Lys, C-terminal amide; synthetic construct; SITE 2: note = 2-Aminoisobutyric Acid; SITE 13: note = alpha-methyl-leucine; SITE 17: note = Lysine is chemically modified through conjugation of the epsilon-amino group of the Lysine side chain with (2-[2-(2-Amino-ethoxy)-ethoxy]-acetyl)2-(gamma-Glu)-CO-(CH2 )16-CO2H; SITE 20:) [Example 25] is ____.
Solution: 6.8
